Entries annotated with measured composite z-score
test system: Plasmodium falciparum Sir2 (PF13_0152, Sir2A); assay: pfSir2 binders on small-molecule microarrays, primary screen, biochemical, small-molecule microarray, 635 nm fluorescence (AID 1098); details: small-molecule microarray binding, fluorescence 635 nm; higher = more signal;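 also: score merges spot fluorescence intensity with its signal-to-noise ratio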
Write the number on its own, no unit after it.

According to the records, this compound COC(=O)[C@@]1(Cc2ccccc2)[C@H]2c3cc(C(=O)N4CCCC4)n(Cc4ccccn4)c3C[C@H]2CN1C(=O)c1ccccc1 displays composite z-score of 1.54

According to the records, this compound CO[C@@H]1COC(=O)CC=C[C@@H](C)[C@@H]2C=C[C@H](O)[C@@H](COC(=O)CCC[C@H]1C)O2 displays composite z-score of 0.686

According to the records, this compound COc1ccccc1CN1C(=O)c2ccccc2[C@@H](C(=O)NCC(F)(F)F)[C@@H]1c1ccc(CO)cc1 displays composite z-score of 1.68

According to the records, this compound COC(=O)[C@@]1(Cc2ccc(F)cc2)[C@@H]2C(=CC(=O)[C@H]2CC(=O)C(=O)N(C)C)CN1C(=O)c1ccccc1 displays composite z-score of 0.346

* * *

assay: small-molecule microarray binders of probe aDKK1, primary screen, biochemical, biotinylated probe, 635/667 nm fluorescence (AID 1099); settings: higher = more signal;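 also: score merges 667nm spot fluorescence with signal to noise across triplicate slides; reference of the scale not given here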
readoutLabel: composite z-score
Write the number on its own, no unit after it.

C=CC[C@@H]1C=C[C@H](ON=C2c3cc(OC)ccc3O[C@H](c3cccc(OC)c3)[C@H]2O)[C@@H](CO)O1 :: -0.403
COC(=O)CC=C[C@H](C)[C@H](CO)NS(=O)(=O)c1ccc(C)cc1 :: -0.397
COC(=O)[C@H](C)NC(=O)CCC1CC(OC(=O)NCc2ccc3c(c2)OCO3)CC2(CCCC(COC(=O)NCCOc3ccccc3)O2)O1 (some centres undefined) :: -0.211

Turning now to a further record.
According to the records, this compound CCc1cc2c(nc1CC)CCN(CCC(C)=NOC[C@@H](O)[C@H]1O[C@@H]3OC(C)(C)O[C@@H]3[C@H]1O)C2 displays composite z-score of -0.54

* * *

assay: mitochondrial membrane potential change in A549 cells, profiling panel, cell-based, JC-1 fluorescence, basal, 24 h, 100 nL (AID 1138); details: higher = more signal;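 also: A549 lung adenocarcinoma cells under basal conditions with no added stimulus; test concentration not given here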
Entries annotated with measured z-score

CCCCCN1CC=CC23O[C@@H]4C=CCOC(=O)[C@@H]4[C@H]2C(=O)N(C(CO)C(C)C)[C@@H]3C1=O (stereo partly drawn) :: -0.348
C=CCOC(=O)[C@H]1[C@@H]2C(=O)O[C@@H](c3ccccc3)[C@@H](c3ccccc3)N2[C@@H](c2ccc(OCCOC(=O)[C@H]3C[C@H]4C(=O)N[C@@H](Cc5ccccc5)C(=O)N4[C@H]3c3ccc(O)cc3)cc2)[C@]12C(=O)Nc1ccccc12 :: -1.58

Turning now to a further record.
According to the records, this compound COC(=O)CC=C[C@@H](C)[C@@H](C=NO[C@@H](C)c1cc(-c2c(C)cc(C)cc2C)no1)OC displays z-score of -0.542

* * *

assay: small-molecule binders of probe aInhba, primary screen, biochemical, small-molecule microarray, 635/667 nm fluorescence (AID 1148); details: higher = more signal;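 also: score merges 667nm spot fluorescence with signal-to-noise for antibody binding to printed compounds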
readoutLabel: composite z-score
Write the number on its own, no unit after it.

C=C(/C(=C/C[C@@H](OC(=O)c1ccncc1)c1ccc(OCCO)cc1)c1cnc2ccccc2c1)C(C)C :: 0.0108
O=C(NN=C1C[C@@H](O)[C@@H](O)[C@@H]2[C@@H]3C(=O)N(c4cccc(Oc5ccccc5)c4)C(=O)[C@@H]3CC[C@H]12)OCc1ccccc1 :: -0.128
CCOC(=O)[C@H](Cc1ccccc1)NC(=O)CCC1CC(OC(=O)NCc2ccc3c(c2)OCO3)CC2(CCCC(COC(=O)NCC3CCCCC3)O2)O1 (stereo partly drawn) :: -0.0289
COC(=O)[C@@H]1CC[C@H](C)[C@@H](c2ccc(C)cc2)N1C(=O)c1ccc(C=NOC[C@@H](O)COCc2ccco2)cc1 :: -0.341

According to the records, this molecule CCOC(=O)CCN1C(=O)[C@H]2[C@H]3[C@H](O)[C@H](O)CC(=NOC[C@@H](O)COCc4ccco4)[C@@H]3CC[C@H]2C1=O displays composite z-score of -0.197

According to the records, this molecule CN(C)c1ccc(C(O)C2C=CC3C(=O)N(c4ccccc4)C(=O)C3N2Nc2ccccc2F)cc1 (stereo not drawn) displays composite z-score of -0.125

According to the records, this molecule CC(=O)O[C@H]1C2=C(C(=O)[C@@H]3O[C@@H]31)[C@H]1C(C)O[C@@H]2[C@@]23C(=O)[C@@H]4O[C@@H]4[C@@H](O)C2=CO[C@H](C)[C@@H]13 (stereo partly drawn) displays composite z-score of -0.214

According to the records, this molecule CO[C@@H]1COC(=O)CC=C[C@@H](C)[C@H](OC)COC(=O)[C@H](COCc2ccccc2)NC(=O)CC=C[C@H]1C displays composite z-score of -0.253

According to the records, this molecule CC(C)(C)N1CC=CC23O[C@@H]4C=CCCOC(=O)C4[C@H]2C(=O)N(CCCCCO)[C@@H]3C1=O (stereo partly drawn) displays composite z-score of 0.214

According to the records, this molecule CO[C@@H]1COC(=O)CC=C[C@@H](C)[C@@H]2C=C[C@H](O)[C@@H](COC(=O)CCC[C@H]1C)O2 displays composite z-score of -0.118

According to the records, this molecule CCOC(=O)[C@H](Cc1ccccc1)NC(=O)CCC1CC(OC(=O)NCCc2ccc(F)cc2)CC2(CCCC(COC(=O)NCC(c3ccccc3)c3ccccc3)O2)O1 (stereo partly drawn) displays composite z-score of -0.248

* * *

Entries annotated with measured composite z-score
assay: binders of probe aFSTL3 on microarray, primary screen, stem cell growth factor project, biochemical, small-molecule microarray, fluorescence 635/667 (AID 1064); settings: higher = more signal;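 also: measures binding of the biotinylated anti-FSTL3 antibody to printed compounds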

COC(=O)[C@H](C)NC(=O)CCC1CC(OC(=O)NCCc2ccc(F)cc2)CC2(CCCC(COC(=O)NCC(c3ccccc3)c3ccccc3)O2)O1 (some centres undefined) :: -0.342

According to the records, this molecule O=C1CCCC2OC12C(O)CCc1ccccc1 (centres undefined) displays composite z-score of -0.555

According to the records, this molecule C=C(/C(=C/C[C@H](OC(C)=O)c1ccc(OCCO)cc1)c1cnc2ccccc2c1)C(C)C displays composite z-score of -0.195

According to the records, this molecule N#Cc1ccc(NN2C(C(O)c3cc(C(F)(F)F)cc(C(F)(F)F)c3)C=CC3C(=O)N(c4ccccc4)C(=O)C32)cc1 (centres undefined) displays composite z-score of 0.0678

* * *

assay: PSAC antagonists in infected red cells, primary screen, cell-based, P. falciparum Indochina, OD700, 18 h (AID 1157); details: P. falciparum Indochina infected erythrocytes, osmotic lysis OD700, 18 h; higher = more signal, called active from +8 up or from −8 down
Activity calls are given as the source filed them.
readoutLabel: z-score

According to the records, this molecule CCOC(=O)C[C@H]1[C@H](OC(=O)c2cc3ccccc3oc2=O)[C@@H](NC(=O)c2ccc3ccccc3n2)c2cc(OCCCO)ccc2N1C(=O)c1ccccc1 displays z-score of -1.83 (inactive)

According to the records, this molecule C[C@@H]1C=CCC(=O)OC[C@H](C)C(=O)N2CCC[C@H]2C(=O)OC1 displays z-score of 0.097 (inactive)

According to the records, this molecule CCc1cc2c(nc1CC)CCN(CCC(C)=NOC[C@@H](O)COCc1ccco1)C2 displays z-score of 0.147 (inactive)

According to the records, this molecule CC(C)C[C@@H]1NC(=O)[C@H]2C[C@@H](C(=O)O)[C@@H](c3ccc(O)cc3)N2C1=O displays z-score of 0.448 (inactive)

According to the records, this molecule COc1ccc([Si](C)(C)[C@@H]2[C@@H](CC(=O)N3CCC[C@H]3CO)O[C@]3(C(=O)N(Cc4cccc(N5CCC5=O)c4)c4ccccc43)[C@H]2C)cc1 displays z-score of 0.496 (inactive)

* * *

Entries annotated with measured z-score
assay: fission yeast growth modulation, primary screen, strain 972, OD600, 24 h, no modulator (AID 1090);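 also: basal condition with compound alone and no growth modifier present; test concentration not given here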; settings: S. pombe 972 growth, higher = more signal, called active from +8 up or from −8 down
Write the number on its own, no unit after it.

According to the records, this compound Cc1cc2c(nc1C)CCCN2CC(C)ON=C1[C@H]2CCn3c(=O)n(-c4ccccc4)c(=O)n3[C@H]2[C@H](O)[C@@H]2O[C@H]12 (stereo not given in full) displays z-score of -0.829

According to the records, this compound CC(C)NC(=O)[C@@]1(C)c2ccccc2C(=O)N(Cc2cc(F)cc(C(F)(F)F)c2)[C@H]1c1ccc(CO)cc1 displays z-score of 0.102

According to the records, this compound C=C(/C(=C/C[C@H](OC(C)=O)c1ccc(OCCO)cc1)c1cnc2ccccc2c1)C(C)C displays z-score of -2.26

According to the records, this compound O=C1[C@H]2[C@H]3[C@H](O)[C@H](O)CC(=NOCc4ccccc4)[C@@H]3CC[C@H]2C(=O)N1C1CCCCC1 displays z-score of -3.36

According to the records, this compound O=C1[C@H]2[C@H]3[C@H](O)[C@H](O)CC(=NOC[C@@H](O)COCc4ccco4)[C@H]3CC[C@H]2C(=O)N1C1CCCCC1 displays z-score of -0.299

According to the records, this compound CCOC(=O)NN=C1C[C@@H](O)[C@@H](O)[C@@H]2[C@@H]3C(=O)N(CC)C(=O)[C@@H]3CC[C@@H]12 displays z-score of 0.0572

According to the records, this compound CC(=O)OC[C@H]1O[C@H](CCON=C(C)CCC(=O)OC[C@H]2O[C@H](C#Cc3ccccc3)C=C[C@@H]2Oc2ccc(C)cc2)C=C[C@@H]1OC(C)=O displays z-score of -0.0797

According to the records, this compound CC(CCN1CCc2nc(-c3ccccc3)c(-c3ccccc3)cc2C1)=NOC[C@@H](C)[C@H](OCc1ccccc1)C(C)C displays z-score of -1.17

According to the records, this compound COc1ccc(O[C@H]2C=C[C@@H](c3ccccc3)O[C@@H]2COC(=O)CCC(C)=NO[C@H](C)c2cn([C@@H]3COC[C@H]3O)nn2)cc1 displays z-score of -0.757

According to the records, this compound NCCCCCNC(=O)[C@@H]1C[C@@H]2C(=O)N3CCC[C@H]3C(=O)N2[C@@H]1c1cccc(OCCO)c1 displays z-score of -0.703

According to the records, this compound CC(=O)C[C@H](O)[C@@H](NC(=O)OC(C)(C)C)C(C)C displays z-score of -0.644

# credit: PubChem BioAssay
